Taken from the supplement of paper PMC3545927.

Target: furin, P09958;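 note: purified furin at 1:10 enzyme:substrate in 50 mM HEPES pH 7.5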
Sequence (P09958 whole entry): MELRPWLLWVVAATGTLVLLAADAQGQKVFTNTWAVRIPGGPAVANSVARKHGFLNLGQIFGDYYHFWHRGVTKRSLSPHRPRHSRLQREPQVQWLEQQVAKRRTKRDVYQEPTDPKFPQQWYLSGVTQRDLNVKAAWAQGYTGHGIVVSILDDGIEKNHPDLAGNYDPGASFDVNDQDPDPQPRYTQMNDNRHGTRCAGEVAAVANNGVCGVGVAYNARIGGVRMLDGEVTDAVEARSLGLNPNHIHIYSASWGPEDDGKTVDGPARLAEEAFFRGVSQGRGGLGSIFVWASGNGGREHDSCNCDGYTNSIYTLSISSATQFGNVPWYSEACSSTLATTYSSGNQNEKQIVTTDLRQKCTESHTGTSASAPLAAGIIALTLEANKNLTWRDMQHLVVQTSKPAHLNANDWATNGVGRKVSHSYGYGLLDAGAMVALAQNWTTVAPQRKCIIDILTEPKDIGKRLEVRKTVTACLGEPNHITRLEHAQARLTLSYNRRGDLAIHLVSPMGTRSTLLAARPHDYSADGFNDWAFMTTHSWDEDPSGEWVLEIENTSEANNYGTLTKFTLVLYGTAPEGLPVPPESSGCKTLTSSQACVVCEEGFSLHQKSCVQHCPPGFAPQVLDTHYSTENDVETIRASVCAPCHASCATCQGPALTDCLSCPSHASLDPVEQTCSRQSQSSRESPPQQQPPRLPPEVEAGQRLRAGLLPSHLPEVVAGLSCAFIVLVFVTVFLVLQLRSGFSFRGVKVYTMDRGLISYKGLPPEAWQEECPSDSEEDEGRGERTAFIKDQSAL
Assay: furin cleavage Z-score vs untreated control; higher = more cleavage, active = 3.5 or more, inactive = 1 or less, 8 variable residues between constant flanks
Conditions: 30 min
This is one part of the list. How many sequences the whole screen found active is unknown.
Assign a class; possible classes are 1.0 for active, 0.0 for inactive

| sequence-chain | class-assignment |
| --- | --- |
| CARTIRSFEGAGNASASA [FS-2240] | 1.0 |
| CARFGRQDEGAGNASASA [FS-1947] | 0.0 |
| CARKRRSLGDAGNASASA [FS-2976] | 1.0 |
| CAEVPCHRPDAGNASASA [HC2411] | 0.0 |
| CAQEMEECSQAGNASASA [HC1802] | 0.0 |
| CATTNCSGSWAGNASASA [HC1881] | 0.0 |

INPUT: What is the recorded call for this sequence in the test? CAKPRRILRSAGNASASA [FS-1019]
OUTPUT: 1.0

INPUT: What is the recorded call for this sequence in the test? CARKRRVRKDAGNASASA [FS-1560]
OUTPUT: 1.0

INPUT: What is the recorded call for this sequence in the test? CAKPRRRRKSAGNASASA [FS-1020]
OUTPUT: 1.0
